The following compounds are listed with their measured inhibition values.
tested on: Proto-oncogene tyrosine-protein kinase receptor Ret (Homo sapiens), P07949 [V804L]; conditions: at 1 µM
Sequence (P07949 whole entry V804L): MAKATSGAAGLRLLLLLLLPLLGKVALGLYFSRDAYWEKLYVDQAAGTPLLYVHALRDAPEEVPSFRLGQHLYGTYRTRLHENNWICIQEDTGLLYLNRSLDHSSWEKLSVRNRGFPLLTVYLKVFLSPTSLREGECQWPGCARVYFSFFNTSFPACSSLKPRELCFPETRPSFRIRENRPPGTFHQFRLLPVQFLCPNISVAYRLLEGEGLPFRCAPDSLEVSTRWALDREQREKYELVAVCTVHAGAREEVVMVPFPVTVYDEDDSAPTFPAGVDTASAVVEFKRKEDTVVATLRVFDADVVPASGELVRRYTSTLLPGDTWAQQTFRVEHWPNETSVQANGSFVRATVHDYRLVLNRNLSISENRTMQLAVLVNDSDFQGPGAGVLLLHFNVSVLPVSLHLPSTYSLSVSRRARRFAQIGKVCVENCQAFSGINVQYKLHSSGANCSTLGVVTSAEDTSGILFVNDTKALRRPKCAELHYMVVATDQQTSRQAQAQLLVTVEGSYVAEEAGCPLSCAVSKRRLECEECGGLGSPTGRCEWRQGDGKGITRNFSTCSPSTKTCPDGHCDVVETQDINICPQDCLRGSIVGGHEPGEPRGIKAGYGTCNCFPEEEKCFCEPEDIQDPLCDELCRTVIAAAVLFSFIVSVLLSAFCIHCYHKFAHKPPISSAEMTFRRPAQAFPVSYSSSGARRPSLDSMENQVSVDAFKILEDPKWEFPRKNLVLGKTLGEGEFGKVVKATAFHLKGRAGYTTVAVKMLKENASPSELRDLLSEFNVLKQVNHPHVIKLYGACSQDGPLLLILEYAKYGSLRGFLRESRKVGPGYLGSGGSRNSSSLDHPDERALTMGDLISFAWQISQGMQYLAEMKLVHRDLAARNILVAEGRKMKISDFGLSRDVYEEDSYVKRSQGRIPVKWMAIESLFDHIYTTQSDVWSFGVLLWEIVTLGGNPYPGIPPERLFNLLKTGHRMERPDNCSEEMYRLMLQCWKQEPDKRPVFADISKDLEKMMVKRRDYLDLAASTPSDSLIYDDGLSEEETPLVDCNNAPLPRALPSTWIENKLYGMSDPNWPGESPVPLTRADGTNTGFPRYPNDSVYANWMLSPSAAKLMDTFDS

{"COMPOUND": "OCc1ccc(-c2nc(-c3ccccn3)c(-c3ccc4c(c3)OCO4)[nH]2)cc1", "TESTED ON": "Proto-oncogene tyrosine-protein kinase receptor Ret (Homo sapiens), P07949 [V804L]", "inhibition [%]": 1.05}
{"COMPOUND": "CN(C)C(=O)O[C@@H]1CN[C@@H](C#Cc2cc3ncnc(Nc4ccc(OCc5cccc(F)c5)c(Cl)c4)c3s2)C1", "TESTED ON": "Proto-oncogene tyrosine-protein kinase receptor Ret (Homo sapiens), P07949 [V804L]", "inhibition [%]": -0.74}
{"COMPOUND": "Nc1nccc(-c2c(-c3ccc(F)cc3)nn3cc(C(F)(F)F)ccc23)n1", "TESTED ON": "Proto-oncogene tyrosine-protein kinase receptor Ret (Homo sapiens), P07949 [V804L]", "inhibition [%]": 0.97}
{"COMPOUND": "Cc1cc(-c2ccccn2)cc(C)c1/C=C/c1cncc(-c2nn[nH]n2)c1", "TESTED ON": "Proto-oncogene tyrosine-protein kinase receptor Ret (Homo sapiens), P07949 [V804L]", "inhibition [%]": 5.09}
{"COMPOUND": "Cc1cc(Cl)cc2c1NC(=O)C2=NNc1ccc(S(N)(=O)=O)cc1", "TESTED ON": "Proto-oncogene tyrosine-protein kinase receptor Ret (Homo sapiens), P07949 [V804L]", "inhibition [%]": 7.51}
{"COMPOUND": "ON=C1CCc2cc(-c3nc(C4CCNCC4)[nH]c3-c3ccncc3)ccc21", "TESTED ON": "Proto-oncogene tyrosine-protein kinase receptor Ret (Homo sapiens), P07949 [V804L]", "inhibition [%]": -3.85}
{"COMPOUND": "CCn1c(-c2nonc2N)nc2c(C#CC(C)(C)O)nc(OCCNC)cc21", "TESTED ON": "Proto-oncogene tyrosine-protein kinase receptor Ret (Homo sapiens), P07949 [V804L]", "inhibition [%]": 4.07}
{"COMPOUND": "O=C1Nc2ccccc2/C1=C/Nc1ccc2[nH]c(=O)[nH]c2c1", "TESTED ON": "Proto-oncogene tyrosine-protein kinase receptor Ret (Homo sapiens), P07949 [V804L]", "inhibition [%]": 75.4}
{"COMPOUND": "COc1ccc2ncnc(Nc3ccc(OCc4ccccc4)cc3)c2c1", "TESTED ON": "Proto-oncogene tyrosine-protein kinase receptor Ret (Homo sapiens), P07949 [V804L]", "inhibition [%]": 7.26}
{"COMPOUND": "COC(=O)c1ccc2c(c1)C(=Cc1cc(Br)c(O)c(Br)c1)C(=O)N2", "TESTED ON": "Proto-oncogene tyrosine-protein kinase receptor Ret (Homo sapiens), P07949 [V804L]", "inhibition [%]": 39.8}
{"COMPOUND": "N#Cc1cccc(Nc2nccc(-c3cnn4ncccc34)n2)c1", "TESTED ON": "Proto-oncogene tyrosine-protein kinase receptor Ret (Homo sapiens), P07949 [V804L]", "inhibition [%]": 43.8}
{"COMPOUND": "COc1cc2ncn(-c3cc(OCc4ccccc4S(C)(=O)=O)c(C#N)s3)c2cc1OC", "TESTED ON": "Proto-oncogene tyrosine-protein kinase receptor Ret (Homo sapiens), P07949 [V804L]", "inhibition [%]": 53.6}
{"COMPOUND": "NC(=O)c1sc(-n2cnc3ccccc32)cc1OCc1ccccc1Br", "TESTED ON": "Proto-oncogene tyrosine-protein kinase receptor Ret (Homo sapiens), P07949 [V804L]", "inhibition [%]": 5.79}
{"COMPOUND": "CCCN1CCCC(c2ccc(Nc3nc(Nc4cc(F)ccc4C(N)=O)c4cc[nH]c4n3)c(OC)c2)C1 (stereo unspecified)", "TESTED ON": "Proto-oncogene tyrosine-protein kinase receptor Ret (Homo sapiens), P07949 [V804L]", "inhibition [%]": 41.6}
{"COMPOUND": "Cc1ccc2c(-c3ccnc(Nc4cccc(C(F)(F)F)c4)n3)c(-c3ccccc3)nn2n1", "TESTED ON": "Proto-oncogene tyrosine-protein kinase receptor Ret (Homo sapiens), P07949 [V804L]", "inhibition [%]": 3.3}
{"COMPOUND": "Nc1ccc(C#Cc2cncnc2Nc2ccc(OCc3cccc(F)c3)c(Cl)c2)cc1", "TESTED ON": "Proto-oncogene tyrosine-protein kinase receptor Ret (Homo sapiens), P07949 [V804L]", "inhibition [%]": 3.18}
{"COMPOUND": "NS(=O)(=O)c1cccc(Nc2cc(-c3ccc(F)cc3)n[nH]2)c1", "TESTED ON": "Proto-oncogene tyrosine-protein kinase receptor Ret (Homo sapiens), P07949 [V804L]", "inhibition [%]": 25.3}
{"COMPOUND": "c1ccc(Nc2ncc(-c3ccccc3)o2)cc1", "TESTED ON": "Proto-oncogene tyrosine-protein kinase receptor Ret (Homo sapiens), P07949 [V804L]", "inhibition [%]": 6.39}
{"COMPOUND": "Cc1nc(-c2ccccc2)n2nc(NCCCN3CCOCC3)ncc12", "TESTED ON": "Proto-oncogene tyrosine-protein kinase receptor Ret (Homo sapiens), P07949 [V804L]", "inhibition [%]": 7.97}
{"COMPOUND": "CN1CCN(C(=O)c2ccc(NC(=O)Nc3ccc(N(C)c4ccnc(Nc5ccc(CS(C)(=O)=O)cc5)n4)cc3)cc2)CC1", "TESTED ON": "Proto-oncogene tyrosine-protein kinase receptor Ret (Homo sapiens), P07949 [V804L]", "inhibition [%]": 67.1}
{"COMPOUND": "Cc1ccc(O)cc1Nc1ccnc2ccc(S(C)(=O)=O)cc12", "TESTED ON": "Proto-oncogene tyrosine-protein kinase receptor Ret (Homo sapiens), P07949 [V804L]", "inhibition [%]": 26.6}
